Source listed as PubChem BioAssay (NCI).

Tested on: SR leukemia
Protocol Description: NCI-60 one-dose screen, 48 h (100 = growth as untreated, 0 = no growth, -100 = all killed)
Assay Context: 10 µM unless noted
About 83,000 compounds went through this panel and 20% of them were active in at least one assay; those are over-represented in the sample as a whole.
Listing of entries alongside the reported growth.
All answers are understood in %, so give the number only.

The examples below pair each entry with its known result.
Compound: OCCn1cc(-c2nc3ccc4[nH]ncc4c3c3c2CCCC3)cn1
growth, %: -3.53
//
Compound: Cc1cccc(-c2ccccc2Oc2ccc3nnc(Cl)n3n2)c1
growth, %: 86.9
//
Compound: COC(=O)c1cc(C(C)=O)n2c3ccccc3c3ccccc3c12
growth, %: 64.7
//
Compound: Cc1ccc(-c2cc(C(=O)N=Nc3c(O)[nH]c4ccc(F)cc34)c3ccccc3n2)cc1
growth, %: 56.8
//
Compound: COc1c(B(O)O)cc(F)cc1-c1nc2ccc3[nH]ncc3c2c2c1COCC2
growth, %: 43.4

Now take the following compound into account.
Any idea what growth was measured for O=C(c1ccc(O)cc1)C1[C@H](c2ccc(Cl)cc2)[C@@H](c2ccccc2)NC12C(=O)Nc1ccc(Br)cc12 (some centres not stated) ? -52.7
